Source of measurements: patent US7320979B2

The listing below reports pKi for compounds tested on human dopamine D3 receptors (Homo sapiens, UniProt P35462).
Sequence (P35462 whole entry): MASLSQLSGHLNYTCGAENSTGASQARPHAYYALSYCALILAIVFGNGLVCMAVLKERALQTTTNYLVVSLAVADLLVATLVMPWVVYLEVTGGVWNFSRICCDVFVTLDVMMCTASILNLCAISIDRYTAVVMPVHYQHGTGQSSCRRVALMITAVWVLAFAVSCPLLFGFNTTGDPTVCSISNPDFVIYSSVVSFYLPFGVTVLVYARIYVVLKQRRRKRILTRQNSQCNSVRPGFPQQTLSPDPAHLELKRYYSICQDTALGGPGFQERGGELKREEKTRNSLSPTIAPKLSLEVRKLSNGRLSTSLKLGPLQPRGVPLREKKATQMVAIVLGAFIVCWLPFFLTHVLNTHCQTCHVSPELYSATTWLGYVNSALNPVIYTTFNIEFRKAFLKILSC
Numbers only, as −log10 of the molar value.

>>> observed_result("C=CCN1CCN(c2ccc(NS(=O)(=O)c3ccc(C(C)C)cc3)cn2)C[C@@H]1CC.Cl [Example 50, hydrochloride]")
8.00
>>> observed_result("CCCN1CC2CC1CN2c1ccc(NS(=O)(=O)c2ccc(C(C)C)cc2)cn1.Cl (stereo not shown) [Example 29, hydrochloride]")
7.77
>>> observed_result("C=Cc1ccc(S(=O)(=O)Nc2cnc(N3CCN(CCC)CC3)cc2C)cc1.Cl [Example 39, hydrochloride]")
7.46
>>> observed_result("CCCN1CCN(c2ccc(NS(=O)(=O)c3ccc(CC)cc3)cn2)CC1.Cl [Example 34, hydrochloride]")
8.02
>>> observed_result("CCN1CCN(c2ncc(NS(=O)(=O)c3ccc(C(C)C)cc3)cn2)C[C@@H]1C.Cl [Example 54, hydrochloride]")
8.64
>>> observed_result("CC(C)c1ccc(S(=O)(=O)Nc2ccc(N3CCN(CCCF)CC3)nc2)cc1.Cl [Example 32, hydrochloride]")
7.77

Moving on to another compound below.
Request: Checklist item: pKi tested on human dopamine D3 receptors (Homo sapiens, UniProt P35462), entry C=Cc1ccc(S(=O)(=O)Nc2ccc(N3CCN(CCC)CC3)nc2)cc1.Cl [Example 31, hydrochloride] , value?
Result: 7.85

----------
These records show pKi for human dopamine D3 receptors (Homo sapiens, UniProt P35462).
Numbers only, as −log10 of the molar value.

>>> observed_result("CCCN1CCN(c2ncc(NS(=O)(=O)c3ccc(C(C)C)cc3)cn2)C[C@@H]1C.Cl [Example 56, hydrochloride]")
8.80
>>> observed_result("CCCN1CCN(c2ccc(NS(=O)(=O)c3ccc(C(C)C)cc3)cn2)C[C@@H]1CC.Cl [Example 51, hydrochloride]")
8.51
>>> observed_result("CCCN1CCN(c2ncc(NS(=O)(=O)c3ccc(CC)cc3)cn2)C[C@@H]1C.Cl [Example 57, hydrochloride]")
8.14
>>> observed_result("C=CCN1CCN(c2ccc(NS(=O)(=O)c3ccc(Br)cc3)cn2)CC1.Cl [Example 19, hydrochloride]")
7.43
>>> observed_result("CCCN1CCN(c2ncc(NS(=O)(=O)c3ccc(C(C)C)cc3)cn2)CC1.Cl [Example 17, hydrochloride]")
8.09
>>> observed_result("Cc1cc(N2CCNCC2)ncc1NS(=O)(=O)c1ccc(C(C)C)cc1.Cl [Example 36, hydrochloride]")
8.27

Could you now consider this next compound?
Request: // lookup pKi for C=Cc1ccc(S(=O)(=O)Nc2cnc(N3CCN(CCC)[C@@H](C)C3)nc2)cc1.Cl [Example 58, hydrochloride]
Result: 8.21

----------
Provide the recorded Selectivity vs. D2L for the entries that follow.
# Tgt: human dopamine D2L receptors (long isoform) (Homo sapiens, UniProt P14416)
# Construct: expressed in transfected cells; host or cells: HEK-293
# Sequence (P14416 whole entry, canonical isoform): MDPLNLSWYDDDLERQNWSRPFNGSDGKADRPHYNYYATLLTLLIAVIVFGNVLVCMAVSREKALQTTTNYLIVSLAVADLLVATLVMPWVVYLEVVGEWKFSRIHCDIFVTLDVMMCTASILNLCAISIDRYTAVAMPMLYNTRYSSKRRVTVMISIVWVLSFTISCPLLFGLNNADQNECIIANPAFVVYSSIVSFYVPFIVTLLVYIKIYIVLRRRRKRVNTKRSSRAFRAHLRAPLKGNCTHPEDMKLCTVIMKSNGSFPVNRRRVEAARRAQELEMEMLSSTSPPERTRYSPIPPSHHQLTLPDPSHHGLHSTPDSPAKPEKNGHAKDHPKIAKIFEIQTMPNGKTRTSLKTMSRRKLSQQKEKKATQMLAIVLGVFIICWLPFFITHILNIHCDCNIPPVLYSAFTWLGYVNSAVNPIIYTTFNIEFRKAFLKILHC
# Method Description: Dopamine D2L receptor binding, displacement of [125I] iodospiperone
# Measurement Conditions: footnote: ratio of the Ki values of the D3 and D2L binding tests
Give bare numbers.

Some solved cases for reference:
>>> observed_result("CC(C)c1ccc(S(=O)(=O)Nc2cnc(N3CCNCC3)nc2)cc1")
63
>>> observed_result("CCCN1CCN(c2ccc(NS(=O)(=O)c3ccc(CC)cc3)cn2)CC1.Cl")
73
>>> observed_result("CCCN1CCN(c2ccc(NS(=O)(=O)c3ccc(CC)cc3)cn2)C[C@@H]1C.Cl")
50
>>> observed_result("C=CCN1CCN(c2ccc(NS(=O)(=O)c3ccc(C=C)cc3)cn2)CC1.Cl")
169
>>> observed_result("Cc1cc(N2CCNCC2)ncc1NS(=O)(=O)c1ccc(C(C)C)cc1.Cl")
50

Take each entry in turn and give its Selectivity vs. D2L.
1. C=Cc1ccc(S(=O)(=O)Nc2cnc(N3CCN(CCC)CC3)cc2C)cc1.Cl
2. C=CCN1CCN(c2ccc(NS(=O)(=O)c3ccc(Cl)cc3)cn2)CC1.Cl
3. CC(C)c1ccc(S(=O)(=O)Nc2ccc(N3CCN(CCCF)CC3)nc2)cc1.Cl
4. CC(C)c1ccc(S(=O)(=O)Nc2ccc(N3CCN(C)CC3)nc2)cc1
5. C=CCN1CCN(c2ccc(NS(=O)(=O)c3ccc(C(C)(C)CC)cc3)c(C)n2)CC1
6. C=CCN1CCN(c2ccc(OS(=O)(=O)c3ccc(C(C)C)cc3)cn2)CC1
7. C=CCN1CCN(c2cc(C)c(NS(=O)(=O)c3ccc(C(C)C)cc3)cn2)CC1.Cl
8. C=CCN1CCN(c2ncc(NS(=O)(=O)c3ccc(C(C)C)cc3)cn2)CC1

Result:
1: 30; 2: 51; 3: 74; 4: 93; 5: 24; 6: 75; 7: 86; 8: 131

----------
# Tgt: human dopamine D3 receptors (Homo sapiens)
The label y is reserved for Ki strictly under 6 nM; n covers values equal to or above it.

Here are 7 compounds together with their reported answers.
>>> group_label("C=CCN1CCN(c2ccc(NS(=O)(=O)c3ccc(C=C)cc3)cn2)CC1.Cl [Example 6, hydrochloride]")
"n"
>>> group_label("CCCN1CCN(c2ccc(NS(=O)(=O)c3ccc(C(C)C)cc3)cn2)CC1C.Cl (racemic) [Example 14, hydrochloride]")
"y"
>>> group_label("C=CCN1CCN(c2ccc(NS(=O)(=O)c3ccc(CCC)cc3)cn2)CC1")
"y"
>>> group_label("C=CCN1CCN(c2ccc(NS(=O)(=O)c3ccc(Cl)cc3)cn2)CC1.Cl [Example 35, hydrochloride]")
"n"
>>> group_label("CCCN1CCN(c2ccc(NS(=O)(=O)c3ccc(CC)cc3)cn2)C[C@@H]1C.Cl [Example 46, hydrochloride]")
"n"
>>> group_label("CC(C)c1ccc(S(=O)(=O)Nc2ccc(N3CCN(C)CC3)nc2)cc1")
"n"
>>> group_label("C=CCN1CC2CC1CN2c1ccc(NS(=O)(=O)c2ccc(C(C)C)cc2)cn1.Cl (centres unmarked) [Example 30, hydrochloride]")
"n"

Request: Does this compound meet the criterion Ki < 6 nM? C=CCN1CCN(c2ncc(NS(=O)(=O)c3ccc(C(C)C)cc3)cn2)C[C@@H]1C.Cl [Example 55, hydrochloride]
Result: y

----------
For each of the molecules below, state its Selectivity vs. D2L.
# Tgt: human dopamine D2L receptors (long isoform) (Homo sapiens)
# Construct: expressed in transfected cells; host or cells: HEK-293
# Method Description: Dopamine D2L receptor binding, displacement of [125I] iodospiperone
# Measurement Conditions: footnote: ratio of the Ki values of the D3 and D2L binding tests
Answers are plain numbers.

// solved cases for Selectivity vs. D2L follow
>>> observed_result("C=CCN1CCN(c2ccc(NS(=O)(=O)c3ccc(C(C)C)cc3)cn2)CC1C.Cl (racemic)")
131
>>> observed_result("CCCN1CCN(c2ccc(NS(=O)(=O)c3ccc(C(C)C)cc3)cn2)C[C@@H]1CC.Cl")
101

Dear colleague, could you please provide Selectivity vs. D2L for the molecules listed below?
1. C=CCN1CCN(c2ccc(NS(=O)(=O)c3ccc(C(C)C)cc3)c(OC)n2)C[C@@H]1C.Cl
2. CCCN1CCN(c2ccc(NS(=O)(=O)c3ccc(C(C)C)cc3)cn2)C[C@@H]1C [Example 14a]
3. C=CCN1C(C)CN(c2ccc(NS(=O)(=O)c3ccc(C(C)C)cc3)cn2)CC1C.Cl (stereo not shown)
4. C=Cc1ccc(S(=O)(=O)Nc2cnc(N3CCN(CCC)[C@@H](C)C3)nc2)cc1.Cl
5. CCCN1CCN(c2ccc(NS(=O)(=O)c3ccc(C(C)C)cc3)c(OC)n2)C[C@@H]1C.Cl
6. C=CCN1CCN(c2ccc(NS(=O)(=O)c3ccc(Br)cc3)cn2)CC1.Cl
7. CCN1CCN(c2ccc(NS(=O)(=O)c3ccc(C(C)C)cc3)cn2)CC1.Cl

Result:
1: 21; 2: 184; 3: 47; 4: 254; 5: 19; 6: 91; 7: 77

Dear colleague, could you please provide Selectivity vs. D2L for the molecules listed below?
1. CCN1CCN(c2ncc(NS(=O)(=O)c3ccc(C(C)C)cc3)cn2)C[C@@H]1C.Cl
2. CC(C)c1ccc(S(=O)(=O)Nc2ccc(N3CCNCC3)nc2)cc1

Result:
1. 84
2. 68

// each molecule listed below needs its Selectivity vs. D2L
1. C=CCN1CCN(c2ccc(NS(=O)(=O)c3ccc(C(C)C)cc3)c(C)n2)CC1
2. CCCN1CCN(c2ccc(NS(=O)(=O)c3ccc(C(C)C)cc3)cn2)CC1C.Cl (racemic)

Result:
1. 80
2. 81

----------
Exercise: state measured Selectivity vs. D2L for each of the compounds provided.
# Tgt: human dopamine D2L receptors (long isoform) (Homo sapiens)
# Construct: expressed in transfected cells; host or cells: HEK-293
# Method Description: Dopamine D2L receptor binding, displacement of [125I] iodospiperone
# Measurement Conditions: footnote: ratio of the Ki values of the D3 and D2L binding tests
Give bare numbers.

Use the examples below as a reference point.
>>> observed_result("CCCN1CCN(c2ncc(NS(=O)(=O)c3ccc(C(C)C)cc3)cn2)CC1.Cl")
148
>>> observed_result("C=CCN1CCN(c2ccc(NS(=O)(=O)c3ccc(C(C)(C)C)cc3)c(C)n2)CC1")
41
>>> observed_result("CCCN1CCN(c2ncc(NS(=O)(=O)c3ccc(CC)cc3)cn2)C[C@@H]1C.Cl")
234
>>> observed_result("C=CCN1CCN(c2ccc(NS(=O)(=O)c3ccc(CCC)cc3)cn2)CC1")
25

Give Selectivity vs. D2L for each of the items listed below.
1. CCCN1CCN(c2ccc(NS(=O)(=O)c3ccc(Cl)cc3)cn2)CC1
2. C=CCN1CCN(c2ccc(NS(=O)(=O)c3ccc(CC)cc3)cn2)CC1.Cl
3. C=Cc1ccc(S(=O)(=O)Nc2ccc(N3CCN(CCC)[C@@H](C)C3)nc2)cc1.Cl
4. CCCN1CCN(c2ccc(NS(=O)(=O)c3ccc(Br)cc3)cn2)CC1
5. CCN1CCN(c2ncc(NS(=O)(=O)c3ccc(C(C)C)cc3)cn2)CC1.Cl
6. CCCN1CCN(c2ccc(OS(=O)(=O)c3ccc(C(C)C)cc3)cn2)CC1.Cl
7. C=CCN1CCN(c2ccc(NS(=O)(=O)c3ccc(C(C)C)cc3)cn2)CC1
8. CCCN1CCN(c2ncc(NS(=O)(=O)c3ccc(C(C)C)cc3)cn2)C[C@@H]1C.Cl

Result:
[67, 108, 118, 55, 149, 47, 232, 399]
